target: 12-LO (Sus scrofa); construct: purchased Cayman Chemical Company; test: Effect on 12-LO catalysed oxidation of arachidonic acid; format: biochemical, porcine; conditions: preliminary experiment; result in words
Sequence (P16469 whole entry, the tested form may be a part): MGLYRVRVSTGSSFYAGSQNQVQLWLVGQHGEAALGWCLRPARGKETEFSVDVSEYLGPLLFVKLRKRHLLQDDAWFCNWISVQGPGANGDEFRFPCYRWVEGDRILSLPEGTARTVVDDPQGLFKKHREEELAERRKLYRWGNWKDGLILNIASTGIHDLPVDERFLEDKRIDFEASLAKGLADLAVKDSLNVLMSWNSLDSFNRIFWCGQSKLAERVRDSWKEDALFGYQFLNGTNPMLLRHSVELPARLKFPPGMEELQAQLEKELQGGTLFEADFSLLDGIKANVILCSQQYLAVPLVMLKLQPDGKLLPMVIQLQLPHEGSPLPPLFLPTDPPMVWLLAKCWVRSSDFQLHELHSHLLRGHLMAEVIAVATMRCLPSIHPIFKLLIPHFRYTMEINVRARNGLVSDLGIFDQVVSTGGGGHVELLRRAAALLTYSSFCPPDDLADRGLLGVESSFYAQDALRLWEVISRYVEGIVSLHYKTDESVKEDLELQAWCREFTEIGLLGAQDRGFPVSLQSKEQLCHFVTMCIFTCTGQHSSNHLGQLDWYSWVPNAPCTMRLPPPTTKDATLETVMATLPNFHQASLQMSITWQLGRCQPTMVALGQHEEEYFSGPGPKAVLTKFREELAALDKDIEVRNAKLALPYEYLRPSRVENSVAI
quantity: Effect on 12-LO catalysed oxidation of AA

compound: CCCCC/C=C\C/C=C\C/C=C\C/C=C\CCCC[N+](=O)[O-]
test.result: Nil

compound: CCCCCCCCCCCCCCCCCC[N+](=O)[O-]
test.result: Nil

compound: CCCCCCCCCCCCCCCCCC(CCC(=O)O)[N+](=O)[O-] (centres unmarked)
test.result: Activatory

compound: CCCCCCCCCCCCCCCCCC(CCC(=O)O)(CCC(=O)O)[N+](=O)[O-]
test.result: Activatory
